- TEST DESCRIPTION: self-splicing fitness, log relative to wild type (ln ratio); higher = more splicing; Tetrahymena group I intron in knt gene, E. coli kanamycin selection, DiMSum; sequences stand for … in CUCUCU…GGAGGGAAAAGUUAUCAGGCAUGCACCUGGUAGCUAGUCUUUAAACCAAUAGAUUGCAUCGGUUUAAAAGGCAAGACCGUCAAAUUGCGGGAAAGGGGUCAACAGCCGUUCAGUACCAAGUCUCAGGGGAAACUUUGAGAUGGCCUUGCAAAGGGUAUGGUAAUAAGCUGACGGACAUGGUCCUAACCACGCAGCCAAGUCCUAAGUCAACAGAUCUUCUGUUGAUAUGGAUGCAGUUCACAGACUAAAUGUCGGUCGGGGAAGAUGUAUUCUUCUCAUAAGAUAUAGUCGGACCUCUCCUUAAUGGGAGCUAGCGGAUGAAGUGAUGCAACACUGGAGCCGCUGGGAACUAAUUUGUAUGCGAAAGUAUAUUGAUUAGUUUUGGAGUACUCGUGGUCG;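 note: selection with 25 µg/mL kanamycin versus none on LB agar overnight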
- MEASUREMENT PARAMETERS: 30 °C
Consider the following sequences; for each one, report its self-splicing fitness (ln).
Would you mind answering with just the numeric figure?

What measured self-splicing fitness (ln) goes with UGAAAGCAAUAUUACGGCAG ?
-0.742

What measured self-splicing fitness (ln) goes with AGUAAGCAAUAUUACGCCCU ?
-0.35

What measured self-splicing fitness (ln) goes with AAGAAGCAAUAUUACGGUUU ?
-1.44

What measured self-splicing fitness (ln) goes with AAUCAGCAAUAUUACGACCG ?
-0.959

What measured self-splicing fitness (ln) goes with GAGAAGCAAUAUUACGAAAC ?
-2.29

What measured self-splicing fitness (ln) goes with GGCCAGCAAUAUUACGGGUU ?
-3.08

What measured self-splicing fitness (ln) goes with GACCAGCAAUAUUACGACCA ?
-0.124

What measured self-splicing fitness (ln) goes with UCAUAGCAAUAUUACGCAUC ?
-3.59

What measured self-splicing fitness (ln) goes with CCGCAGCAAUAUUACGGACC ?
-3.45

What measured self-splicing fitness (ln) goes with UAGGAGCAAUAUUACGUGGU ?
-3.87

What measured self-splicing fitness (ln) goes with ACUCAGCAAUAUUACGACCC ?
-0.845

What measured self-splicing fitness (ln) goes with CGGCAGCAAUAUUACGCUUA ?
-0.963

What measured self-splicing fitness (ln) goes with UCUAAGCAAUAUUACGAUCG ?
-1.06

What measured self-splicing fitness (ln) goes with GAUGAGCAAUAUUACGUCUU ?
-1.41

What measured self-splicing fitness (ln) goes with CCGCAGCAAUAUUACGACCG ?
-0.576

What measured self-splicing fitness (ln) goes with GUGGAGCAAUAUUACGUCGA ?
-3.42
